- measurement-target: T1, His-tagged human LILRB2 polypeptide (human, UniProt Q8N423 22-460)
- T1 construct: SPR analyte; also called His-tagged human LILBR2 polypeptide; not shown: His tag
- T1 sequence (Q8N423 22-460 limits assumed): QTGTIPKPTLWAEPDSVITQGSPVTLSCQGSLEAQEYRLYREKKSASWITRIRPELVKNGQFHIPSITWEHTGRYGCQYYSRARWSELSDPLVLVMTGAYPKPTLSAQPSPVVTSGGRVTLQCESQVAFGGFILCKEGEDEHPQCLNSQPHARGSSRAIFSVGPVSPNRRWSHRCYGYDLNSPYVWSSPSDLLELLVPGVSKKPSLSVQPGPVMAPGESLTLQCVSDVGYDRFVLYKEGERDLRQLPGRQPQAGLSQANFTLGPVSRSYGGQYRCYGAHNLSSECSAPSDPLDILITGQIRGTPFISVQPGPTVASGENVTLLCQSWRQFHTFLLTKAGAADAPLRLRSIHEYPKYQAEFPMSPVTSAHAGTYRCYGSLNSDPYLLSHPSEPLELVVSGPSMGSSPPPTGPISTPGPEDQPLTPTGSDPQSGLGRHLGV
- assay: SPR, antibody on CM5 chip, His-LILRB2 analyte, 1:1 model
reported-property: kon (M⁻¹ s⁻¹)
Unit M⁻¹ s⁻¹ implied. Number only.

Lab note: measured kon of Antibody 8A4 (antibody, V domains shown, Mouse hybridoma mAb purified from ascites) VH: QVQLKESGPGLVAPSQSLSITCTVSGFSLTDYGVNWVRQPPGKGLEWLGMIWGDGNTDYNSALKSRLSISKVNSKSQVFLKMNSLQTDDTARYYCARSSYRYDENIYYYAMDYWGQGTSVTVSS VL: DIVMTQSPSSLTVTAGEEVTLSCKSSQSLLNSGIQKNYLTWYQQKPGQPPKLLIYWASTRESGVPDRFTGSVSGTDFTLTISSVQAEDLAVYYCQNDYSLPFTFGSGTKLEIK was 940000

According to the records, this binder Antibody 14C11 (antibody, V domains shown, Mouse hybridoma mAb purified from ascites) VH: EVQLQQSGPDLVKPGASVKISCKASGYIFTDFNMHWVKQSHGKSLEWIGYIYPFNGGTGYNQKFENKATLTVDNSSSTAYMEVRSLTSEDSAVYYCARRGGRGHFDYWGQGTTLTVSS VL: DIQMTQSPASLSASVGETVTVTCRASGNIHNYLAWYQQKQGKSPQLLVYNAKTLADGVPSRFSGSGSGTQFSLKINSLQPEDFGSYYCQHFWNTPFTFGSGTKLEIK displays kon of 260000

// sample Antibody 15A6 (antibody, V domains shown, Mouse hybridoma mAb purified from ascites) VH: EVKLVESGGDLVKPGGSLKLSCAASGFTFSTYGMSWVRQTPEKRLEWVATISGSNSYTYYPDSVKGRFTISRDNAKNNLYLQMSSLRSEDTALYYCTRHENGYYFYAMDYWGQGTSVTVSS VL: DVQITQSPSYLTASPGETITINCRSSKSITKYLAWYQEKPGKTNKLLIYSGSTLQSGIPSRFSGSGSGTDFTLTISSLEPEDFAMYYCQQHSEYPWTFGGGTRLEIK , its kon was 251000

Hey, just so you know, these numbers are from patent US20240109962A1.
